biological target: FAST (variant of the photoactive yellow protein (PYP), SEQ ID NO: 3) (Halorhodospira halophila, UniProt P16113, C69G/D97P/F96I/M100R/Q99S/T101G/T95M/Y94W/Y98T); construct: His tag; assay: biochemical; settings: KD affinity constant, FAST:fluorogen complex in PBS pH 7.4
Sequence (P16113 whole entry C69G/Y94W/T95M/F96I/D97P/Y98T/Q99S/M100R/T101G): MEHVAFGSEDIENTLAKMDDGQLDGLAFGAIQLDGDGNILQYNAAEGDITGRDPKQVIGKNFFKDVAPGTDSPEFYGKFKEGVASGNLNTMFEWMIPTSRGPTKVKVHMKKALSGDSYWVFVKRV
pKd: −log10 of the molar value.
# key: entry, value: pKd

compound: CCOc1cc(/C=C2\SC(=S)N(CC(=O)O)C2=O)ccc1O [HBRAA-3OE]
bound_sign: =
pKd: 5.77
//
compound: COc1cc(/C=C2\SC(=S)N(CC(=O)O)C2=O)cc(OC)c1O [HBRAA-3,5DOM]
bound_sign: <
pKd: 4.70
//
compound: COc1cc(/C=C2\SC(=S)N(CC(=O)O)C2=O)ccc1O [HBRAA-3OM]
bound_sign: <
pKd: 4.70
//
compound: Cc1cc(/C=C2\SC(=S)N(CC(=O)O)C2=O)cc(C)c1O [HBRAA-3,5DM]
bound_sign: <
pKd: 4.70
//
compound: O=C(O)CN1C(=O)/C(=C/c2ccc(O)cc2)SC1=S [HBRAA]
bound_sign: <
pKd: 4.70
//
compound: Cc1cc(/C=C2\SC(=S)N(CC(=O)O)C2=O)c(C)cc1O [HBRAA-2,5DM]
bound_sign: =
pKd: 5.27
//
compound: Cc1cc(/C=C2\SC(=S)N(CC(=O)O)C2=O)ccc1O [HBRAA-3M]
bound_sign: =
pKd: 5.19
